Literature roundup of Receptor-interacting serine/threonine-protein kinase 1 (Homo sapiens, UniProt Q13546) data, read-out Ki.
readoutKind: Ki (µM)

1) CN1C(=O)[C@@H](NC(=O)c2cc3n(n2)CCO[C@H]3c2ccccc2F)COc2cccnc21 (single isomer, unassigned) | 0.024
2) CCC(F)(F)c1nc2n(n1)C(c1ccccc1)CC2F (racemic) | 0.041
3) [O-][S+](CC(F)(F)F)c1nc2n(n1)C(c1ccccc1)CC2 (stereo not shown) | 0.057
4) O=S(=O)(c1nc2n(n1)[C@@H](c1ccccc1)C[C@H]2F)C1CC1 (single isomer, unassigned) | 0.98

* * *

Literature roundup of Receptor-interacting serine/threonine-protein kinase 1 (Homo sapiens) data, read-out Ki.
readoutKind: Ki (nM)

1) O=S(=O)(c1nc2n(n1)[C@H](c1ccccc1)C[C@@H]2F)[C@@H]1CC1(F)F (single isomer, unassigned) | 4
2) O=C(c1nc2n(n1)[C@H](C(F)(F)F)CC2)N1CC(F)(F)C1 (racemic) | 5000
3) [2H][C@](F)(c1nc2n(n1)[C@H](c1ccccc1)C[C@@H]2F)C1CC1 (single isomer, unassigned) | 3.1
4) CN1C(=O)[C@@H](NC(=O)c2cc3n(n2)[C@H](c2ccccc2)C[C@@H]3F)COc2ccccc21 (single isomer, unassigned) | 4.4
5) F[C@H](c1nc2n(n1)[C@H](c1ccccc1)C[C@@H]2F)C12CC(C1)C2 (single isomer, unassigned) | 840
6) O=S(=O)(c1nc2n(n1)[C@H](c1ccccc1)C[C@@H]2F)C1(C(F)F)CC1 (single isomer, unassigned) | 4.8
7) Fc1cnn(-c2nc3n(n2)[C@H](c2ccccc2)C[C@@H]3F)c1 (single isomer, unassigned) | 9
8) CC1c2c(F)cccc2CCN1C(=O)c1nc2n(n1)[C@H](c1ccccc1)C[C@@H]2F (mixture of isomers) | 57
9) CC(C)(C)[S@@+]([O-])c1nc2n(n1)[C@H](c1ccccc1)C[C@@H]2F (single isomer, unassigned) | 5
10) N#CC[S@@+]([O-])c1nc2n(n1)[C@H](c1ccccc1F)C[C@@H]2F (single isomer, unassigned) | 3
11) O=S(=O)(c1nc2n(n1)[C@H](c1ccccc1F)C[C@@H]2F)C(F)F (single isomer, unassigned) | 13
12) O=C(c1nc2n(n1)[C@H](c1ccccc1)C[C@@H]2F)N1CCn2ccnc2C1 (racemic) | 49
